Values compiled from patent EP0584223B1.

Assay: Bioavailability in rats, blood levels by HPLC
Format: in vivo
Settings: rat, oral gavage, 50 mg/kg single dose, 8h, whole blood
Quantity Measured: concentration at 8 h
# output: numeric value plus its unit

Return the recorded concentration at 8 h value; entry: COc1cc(C(=O)C(=O)N2CCCC[C@H]2C(=O)OC(CCCc2ccccc2)CCCc2ccccn2)cc(OC)c1OC (stereo partly shown) [Compound 20]
3000 nM

###

Test system: PBLs stimulated with JVM human viral-transformed B lymphoblastoid cell line
Experiment: MLR bioassay, PBLs stimulated with JVM cells
Assay type: cell-based
Conditions: mixed lymphocyte reaction, JVM stimulator cells, inhibition of proliferation, read-out: JVM
Quantity Measured: pIC50
Scale: negative log10 of molar concentration, which is what pIC50 denotes.

[
  {
    "Compound": "COc1cc(C(=O)C(=O)N2CCCC[C@H]2C(=O)OC(CCCc2ccccc2)CCCn2ccc3cccnc32)cc(OC)c1OC (stereo partly shown)",
    "pIC50": 5.22
  }
]

Next compound, pIC50 to be filled in.
Return the recorded pIC50 value; entry: COc1cc(C(=O)C(=O)N2CCCC[C@H]2C(=O)OC(CCCc2ccccc2)CCCc2cccnc2)cc(OC)c1OC (mixture of isomers)
5.22

###

Tested on: human peripheral blood lymphocytes (PBC)
Test: Mitogenesis assay, OKT3 stimulated proliferation
Type: cell-based
Details: Lymphocyte, read-out: OKT3
Quantity Measured: IC50

Give measured IC50 for COc1ccc(CCCC(CCCc2ccccc2)OC(=O)[C@@H]2CCCCN2C(=O)C(=O)c2cc(OC)c(OC)c(OC)c2)cc1 (stereo partly shown) (human peripheral blood lymphocytes (PBC)).
2500 nM

###

compounds and their reported pIC50
Tested on: CTLL-20 murine T cell line
Experiment: IL-2 microassay, IL-2 dependent CTLL proliferation
Format: cell-based
Settings: Mus musculus; inhibition of proliferation of cytotoxic T cells stimulated by IL-2; read-out: CTLL
Scale: negative log10 of molar concentration, which is what pIC50 denotes.

[
  {
    "Compound": "O=C(C(=O)N1CCCC[C@H]1C(=O)OC(CCCc1ccccc1)CCCc1cccnc1)c1cccc(OCc2ccccc2)c1 (stereo partly shown)",
    "Tested On": "CTLL-20 murine T cell line",
    "pIC50": 5.30
  },
  {
    "Compound": "O=C(C(=O)N1CCCC[C@H]1C(=O)OC(CCCc1ccccc1)CCCc1ccccn1)c1ccccc1 (stereo partly shown)",
    "Tested On": "CTLL-20 murine T cell line",
    "pIC50": 5.30
  },
  {
    "Compound": "COc1cc(C(=O)C(=O)N2CCCC[C@H]2C(=O)OC(CCCc2ccccc2)CCCn2ccc3cccnc32)cc(OC)c1OC (stereo partly shown)",
    "Tested On": "CTLL-20 murine T cell line",
    "pIC50": 5.46
  }
]

Return the recorded pIC50 value; entry: CC(C)(C)C(=O)C(=O)N1CCCC[C@H]1C(=O)OC(CCCc1ccccc1)CCCc1ccccn1 (mixture of isomers)
5.40

Return the recorded pIC50 value; entry: COc1cc(C(=O)C(=O)N2CCCC[C@H]2C(=O)OC(CCCc2ccccc2)CCCc2cccc(CO)c2)cc(OC)c1OC (stereo partly shown)
5.60

###

Test: Bioavailability in rats, blood levels by HPLC
Assay type: in vivo
Conditions: rat, IP, 50 mg/kg single dose, 0.5h, whole blood
Description: Bioavailability of compound (20) was determined in rats. A single dose of 50 mg/kg was administered by oral gavage or intraperitoneal (IP) injection in a vehicle consisting of olive oil-10% ethanol. […] Whole blood was extracted with acetonitrile-methanol (90/10 vol:vol) and the concentration of compound per ml of blood was determined by HPLC. […] After oral administration, blood levels of 0.5µM, 1µM, 2µM, 12µM, and 3µM were measured at .05h, 1h, 2h, 4h, and 8h, respectively.
Quantity Measured: concentration at 0.5 h (nM)
# unit: nM | format: bare number

Return the recorded concentration at 0.5 h value; entry: COc1cc(C(=O)C(=O)N2CCCC[C@H]2C(=O)OC(CCCc2ccccc2)CCCc2ccccn2)cc(OC)c1OC (stereo partly shown) [Compound 20]
700
